System: SK-MEL-2 melanoma
assay details: NCI-60 one-dose screen, 48 h
assay context: 10 µM unless noted
Compounds without any hit were thinned out: in the full panel of roughly 83,000, 20% have a hit. Activity calls are given as the source filed them. The calls were made as follows: active = growth percent below 10; inactive = the rest.
Returns: one label drawn from True (active), False (inactive)

Answered examples (8):
C/C(Cc1ccccc1)=N\O ... False
Cn1/c(=N\N=C\c2ccccc2OCCO)sc2ccccc21 ... False
N#Cc1ccc(OC(=O)Nc2c(Cl)cc(Cl)cc2Cl)cc1 ... False
CC(c1ccccc1)N(C)C (centres undefined) ... False
NC(=S)N/N=C/c1ccc(OC(=O)COc2ccc(Cl)cc2)cn1 ... False
Nc1ccccc1SC1CC(=O)N(c2ccc(Cl)c(Cl)c2)C1=O (centres undefined) ... False
ClCC(Cl)C1CCC(Cl)C(Cl)C1 (centres undefined) ... False
CC(=O)N=c1ccc2nc3c(cc(N)c4ccccc43)oc-2c1 ... True

# fetch the recorded call for C#CC(O)c1ccccc1 (centres undefined) here
False

Would you mind telling me which call this test gave `O=S(=O)(O)C(C(I)I)S(=O)(=O)O` ?
False

For this compound, state the assay outcome: `O=C1C=CC(=O)C2=C1CCCC2`
False

Could you kindly confirm the outcome this assay logged for `C/C(=N\O)c1ccccn1` ?
False

Assay outcome for `CCN(CC)CCN1CNC(=S)NC1` : what was it?
False

I'd appreciate the recorded outcome for CC1(C)OC2C(CO)OC(n3ccc(=O)[nH]c3=O)C2O1 (centres undefined) from this test.
False

Per the records of this test, what outcome belongs to `OCCc1ccc(Cl)cc1` ?
False

====

Tested on: HT29 colon
assay details: NCI-60 one-dose screen, 48 h (100 = growth as untreated, 0 = no growth, -100 = all killed)
assay context: 10 µM unless noted
Description: Growth inhibition of the HT29 human tumor cell line is measured as a screen for anti-cancer activity. Cells are grown in 96 well plates and exposed to the test compound for 48 hours. Compounds are tested at a single concentration, which is 10^-5 M for most compounds. The reported endpoint is percent growth (GI% or GIPRCNT), where numbers from 0 - 100% represent growth inhibition, and numbers from -100% - 0 represent cell death. For example, a value of 40 represents 60% growth inhibition. […]
The panel holds about 83,000 compounds, 20% with a hit somewhere; the sample as a whole holds those more often.
Measured growth accompanies every entry in the list below.
The figure you give is taken to be in %; do not add the unit.

CCCCN(C=S)CCCC ... 102
O=C(Nc1ccccc1)c1ccco1 ... 100
Cc1cc(Cl)cc(Cc2cc(Cl)cc(C)c2O)c1O ... 98.1
CC(=O)Nc1ccc(/C=C2\SC(=S)N(/C=C(\C(C)=O)C(N)=O)C2=O)cc1 ... 97.4
NC(CSSCC(N)C(=O)O)C(=O)O (stereo not drawn) ... 5.05
COC1(OC)C2(Cl)C(Cl)=C(Cl)C1(Cl)C1COCC12 (stereo not drawn) ... 99.3
O=C(N/N=C\c1ccc(Cl)cc1Cl)c1ccncc1 ... 90.1
Cn1c(=O)c2nc3c(=O)n(C)c(=O)n(C)c3nc2n(C)c1=O ... 109

Reported growth, compound COC1C(=O)CCC2(CO2)C1(O)C1(C)OC1CCC(C)C (stereo not drawn) : ____
60.3

Which growth reading was recorded for the compound `CC(=O)C[n+]1ccc(C)cc1Sc1ccccc1C` ?
99.1

// query growth value for entry `NC(=S)N/N=C/c1ccc(Cl)cc1`
108

If you can, please state the reported growth value of `COc1ccc(Br)c(C=O)c1` .
76.3

// returns reported growth for input `O=S(=O)(c1ccc(NC(=S)NCc2cccnc2)cc1)N1CCCCC1`
55.2

====

System: COLO 205 colon
assay details: NCI-60 one-dose screen, 48 h
assay context: 10 µM unless noted
Compounds without any hit were thinned out: in the full panel of roughly 83,000, 20% have a hit. Activity calls are given as the source filed them. Rule for the calls: active = growth percent below 10; inactive = the rest.
Write down the outcome that applies. Available outcomes: label 1 (active), label 0 (inactive)

The examples below pair each entry with its known result.
CC(C)OCC(CCl)OC(=O)Nc1ccccc1 (stereo not drawn) ... label 0
Nc1ccccc1SC1CC(=O)N(c2ccc(Cl)c(Cl)c2)C1=O (stereo not drawn) ... label 0
CNc1ccccc1C(N)=O ... label 0
Nc1ncnc(Nc2ccc(C(F)(F)F)cc2)n1 ... label 0
Nc1ncnc2c1ncn2C1OC(CO)C2OC21 (stereo not drawn) ... label 0
COC1OC(CO)C(OC)C(O)C1O (stereo not drawn) ... label 0
CCN(CC)CCCC(C)NC(=S)N/N=C(\C)c1ccccn1 (stereo not drawn) ... label 0
O=c1[nH]c(=O)c2cc(Cl)cc(Cl)c2[nH]1 ... label 0

Give the logged outcome of this assay for the following compound: `CCCCCCCCCc1ccc(OC(C)=O)cc1`
label 0

Per the assay record, what outcome was assigned to `BrCc1cccc(C[P+](c2ccccc2)(c2ccccc2)c2ccccc2)c1` ?
label 1

Which result was noted for this compound in the test: `NC(CO)(CO)c1ccccc1`
label 0

What was the test verdict on CC(=O)C1C(=O)C(=O)N(c2cccc([N+](=O)[O-])c2)C1=O (stereo not drawn) ?
label 0

For `Cc1ccc2nc(N)nnc2c1` , what call appears in the results of this test?
label 0

Outcome logged for `O=Cc1ccc(O)c(O)c1` in this assay:
label 0

Which outcome did this test record for the compound N=C(N)c1nn(C2OC(CO)C(O)C2O)c2nc[nH]c(=O)c12 (stereo not drawn) ?
label 1

How was `CN(C)c1ccc2nc3ccc(=[N+](C)C)cc-3oc2c1` classified in this test?
label 1

Hi, do you know how `CCOC(=O)C(CCC#N)(CCC#N)C(=O)OCC` came out in this test?
label 0

// outcome(item) with item = `CSc1cnc2ccccc2n1`
label 0

Which outcome did this test record for the compound `Cc1ccc(S(=O)(=O)CCCl)cc1` ?
label 0

I would be grateful if you could indicate the recorded call for `O=C(O)c1c[nH]c2ccccc2c1=O` .
label 0

Short answer needed: outcome of this test for `COc1c(CNC(=O)CCl)cc2[nH]c(C)cc2c1CNC(=O)CCl` ?
label 0

Answer briefly: the call reported for `CCOC(=O)c1ccc(Nc2sc(C(=O)c3ccc(Br)cc3)c(N)c2C#N)cc1` in this assay.
label 0

Record request — test call for `O=[n+]1ccn([O-])c2ccccc21`
label 0

State the result this test recorded for `Cc1ccc(C)c2c1CCC2=O` .
label 0

Record request — test call for `CCCCCCCCNC(=O)C(C)C`
label 0

Fill in: this test's call for `CCOC(=O)/C(C)=C\c1ccc(OC)c(OC)c1` is ___
label 0

Per the records of this test, what outcome belongs to `c1ccc(Nc2ccccn2)nc1` ?
label 0

Per the records of this test, what outcome belongs to `O=Cc1ccc(Cl)c(Cl)c1` ?
label 0

====

System: MOLT-4 leukemia
assay details: NCI-60 one-dose screen, 48 h (100 = growth as untreated, 0 = no growth, -100 = all killed)
assay context: 10 µM unless noted
Compounds without any hit were thinned out: in the full panel of roughly 83,000, 20% have a hit.
Recorded growth values for a group of compounds are listed next.
Could you give me the number in %? Just the number is fine.

Known growth results, listed for orientation:
C/C(Cc1ccccc1)=N\O ... 5.17
COC(=O)Cc1cc(COC(C)=O)ccc1C ... 98.4
CCOC(=O)c1cc(C)[nH]c(=O)c1C#N ... 72.1
O=C1C=Cc2ccccc2/C1=C/c1[nH]c(=O)[nH]c1O ... 43
CCN(CC)CCCC(C)NC(=S)N/N=C(\C)c1ccccn1 (stereo not given) ... 9.05

For the compound shown here, `Cn1/c(=N\N=C\c2ccccc2OCCO)sc2ccccc21` , give the reported growth.
62.7

State the recorded growth for this entry: `CC(C)C(C)(C)C(=O)C(C)(C)C(C)(C)C`
110

For the compound shown here, `CCOC(=O)c1cc(Cl)c(O)c(Cl)c1` , give the reported growth.
89.6

Which value of growth has been reported for `Cc1[nH]nc(C(N)=O)c1[N+](=O)[O-]` in the records?
109

Would you kindly share the measured growth for COC(c1ccc2c(c1)OCO2)C(C)Br (stereo not given) ?
91.6

Reported growth, compound `Oc1ccc(N=Cc2ccc(OCc3ccccc3)cc2)cc1` : ____
97.1

====

Test system: OVCAR-3 ovarian
assay details: NCI-60 one-dose screen, 48 h (100 = growth as untreated, 0 = no growth, -100 = all killed)
assay context: 10 µM unless noted
Compounds without any hit were thinned out: in the full panel of roughly 83,000, 20% have a hit.
measurement type: growth (%)
Write the answer as a number in %, unit excluded.

Solved cases below.
CCCCCCCCCCC(=O)CCCCCCCCCC ... 118
ON1CCCC1 ... 112
C(=C\c1ccncc1)/c1ccncc1 ... 169
O=C(CC(CC(=O)c1ccccc1)c1ccccn1)c1ccccc1 ... 106
Cc1cc(NC(=O)c2ccccc2)c(Cl)cc1N ... 119

What does the record list as growth for `NC(=O)OCCO` ?
102

Tell me the measured growth of `O=C(c1cccc(C(=O)c2ccc3c4c(cccc24)C(=O)N(c2ccccc2)C3=O)c1)c1ccc2c3c(cccc13)C(=O)N(c1ccccc1)C2=O` , please.
98.8

Could you tell me which growth is on file for `Oc1cc2ccccc2c(-c2c(O)c(O)cc3ccccc23)c1O` ?
44.9

Sourced from PubChem BioAssay (NCI)
